# pEC50 per entry
Tested on: SARS-CoV-2 (USA_WA1/2020)
Assay: microbe, parasite or virus in culture
Type: cell-based
Conditions: Severe acute respiratory syndrome coronavirus 2, Vero C1008, SARS-CoV-2 CPE assay, Vero E6 cells; confirmed anti-SARS-CoV-2 compounds; read-out: CPE EC50
pEC50: −log10 of the molar value. Counter-ions that a name gives are not always drawn. *1 amine or outer side, *2 acyl side, *3 side chain or, on linkers, in order; H or OH if unused. Where a SMILES comes first, the peptide text is derived from it. Bridges are numbered along the chain shown (N, C = ends). [ ]: non-standard residue; d: D form. The star is where a group is joined. pTerphenylCO(4''-OnC5H11) = CCCCCOc1ccc(-c2ccc(-c3ccc(C(=O)*)cc3)cc2)cc1; Orn(4R-OH,5R-OH) = O=C([C@H](C[C@@H](O)[C@@H](O)N[*:3])N[*:1])[*:2]; hTyr(3S-OH,4S-OH) = N[C@H](C(=O)O)[C@H](O)[C@@H](O)c1ccc(O)cc1; Pro(3S-OH,4S-Me) = C[C@H]1CN[C@H](C(=O)O)[C@H]1O; Hyp = O=C(O)[C@@H]1C[C@@H](O)CN1
Reported Property: pEC50

{"Molecule": "CCOC(=O)c1c(CSc2ccccc2)n(C)c2cc(Br)c(O)c(CN(C)C)c12", "Reported Property": "pEC50", "Value Measured": 4.95}
{"Molecule": "COc1ccc2c(c1)[C@]1(C[C@H]1c1ccc3c(/C=C/c4ccc(CN5C[C@@H](C)O[C@@H](C)C5)cc4)n[nH]c3c1)C(=O)N2", "Reported Property": "pEC50", "Value Measured": 4.95}
{"Molecule": "CCCCN(CCCC)CCC(O)c1cc2c(Cl)cc(Cl)cc2c2cc(C(F)(F)F)ccc12 (stereo not drawn)", "Reported Property": "pEC50", "Value Measured": 5.25}
{"Molecule": "COCCN1CCN(Cc2ccc(-c3n[nH]c4c3C(=O)c3c(NC(=O)NN5CCOCC5)cccc3-4)cc2)CC1", "Reported Property": "pEC50", "Value Measured": 5.55}
{"Molecule": "c1ccc(-c2cc(CCC3CCNCC3)c3ccccc3n2)cc1", "Reported Property": "pEC50", "Value Measured": 5.00}
{"Molecule": "CN(C)CCCN1c2ccccc2Sc2ccc(C(F)(F)F)cc21 [Triflupromazine hydrochloride]", "Reported Property": "pEC50", "Value Measured": 5.00}
{"Molecule": "Cc1c(O)cccc1C(=O)N[C@@H](CSc1ccccc1)[C@H](O)CN1C[C@H]2CCCC[C@H]2C[C@H]1C(=O)NC(C)(C)C [Nelfinavir Mesylate]", "Reported Property": "pEC50", "Value Measured": 5.45}
{"Molecule": "CCCCCOc1ccc(-c2ccc(-c3ccc(C(=O)N[C@H]4C[C@@H](O)[C@@H](O)NC(=O)[C@@H]5[C@@H](O)[C@@H](C)CN5C(=O)[C@H]([C@@H](C)O)NC(=O)[C@H]([C@H](O)[C@@H](O)c5ccc(O)cc5)NC(=O)[C@@H]5C[C@@H](O)CN5C(=O)[C@H]([C@@H](C)O)NC4=O)cc3)cc2)cc1 [Anidulafungin] ({pTerphenylCO(4''-OnC5H11)}-[Orn(4R-OH,5R-OH)]T[Hyp][hTyr(3S-OH,4S-OH)]T[Pro(3S-OH,4S-Me)]; lactam 1-C)", "Reported Property": "pEC50", "Value Measured": 5.16}
{"Molecule": "CN1CCC(=C2c3ccccc3CCc3sccc32)CC1", "Reported Property": "pEC50", "Value Measured": 4.95}
